Target: EIF2AK3 (PERK) catalytic domain (amino acids 536-1116) (Homo sapiens (Human), UniProt Q9NZJ5)
Sequence (Q9NZJ5 536-1116): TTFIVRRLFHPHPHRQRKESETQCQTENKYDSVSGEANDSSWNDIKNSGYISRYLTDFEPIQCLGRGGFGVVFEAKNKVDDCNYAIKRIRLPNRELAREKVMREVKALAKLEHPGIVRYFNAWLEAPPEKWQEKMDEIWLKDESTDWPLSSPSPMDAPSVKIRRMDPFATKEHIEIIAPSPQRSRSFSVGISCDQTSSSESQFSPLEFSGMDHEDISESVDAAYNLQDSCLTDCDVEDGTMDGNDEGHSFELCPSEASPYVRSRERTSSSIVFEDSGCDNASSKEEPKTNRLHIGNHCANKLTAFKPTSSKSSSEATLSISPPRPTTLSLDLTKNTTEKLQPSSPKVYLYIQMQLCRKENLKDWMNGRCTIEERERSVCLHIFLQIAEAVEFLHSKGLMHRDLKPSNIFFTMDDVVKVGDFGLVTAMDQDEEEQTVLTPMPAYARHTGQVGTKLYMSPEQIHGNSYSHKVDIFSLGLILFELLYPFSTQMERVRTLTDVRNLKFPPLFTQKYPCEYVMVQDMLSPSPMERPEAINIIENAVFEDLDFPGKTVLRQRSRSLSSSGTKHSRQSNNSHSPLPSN
Assay: PERK in vitro activity assay (isolated), TR-FRET kinase assay
Conditions: isolated PERK enzyme, 1.5 μM ATP, GFP-eIF2a substrate; read-out: Biochemical IC50
pIC50: −log10 of the molar value.
Catalogue of pIC50 readings, one per entry.

Take a look at these entries with their results.
Cc1c(-c2cnc(N)c(C(=O)NC(C)C)c2)ccc(NC(=O)C(O)c2cc(F)cc(F)c2)c1F (stereo not shown) [Example 116] :: 6.30 to 6.60
Cc1cc(NC(=O)C(O)c2cc(F)cc(F)c2)ccc1-c1cnc(N)c(C(=O)NCCO)c1 (stereo not shown) [Example 56] :: 7.60 to 9.00
Cc1cc(NC(=O)C(N)c2ccccc2)ccc1-c1cnc(N)c(C(=O)NC(C)C)c1 (stereo not shown) [Example 6] :: 5.70 to 6.00

Let's switch to this molecule now.
Task item: Name the recorded pIC50 of the item Cc1cccc(C(O)C(=O)Nc2ccc(-c3cnc(N)c(C(=O)NC(C)C)c3)c(C)c2)c1 (stereo not shown) [Example 67] in your answer.
Reply: 7.60 to 9.00

* * *

Molecular target: EIF2AK3 (PERK) catalytic domain (amino acids 536-1116) (Homo sapiens (Human), UniProt Q9NZJ5)
Test: PERK in vitro activity assay (isolated), TR-FRET kinase assay
Conditions: isolated PERK enzyme, 1.5 μM ATP, GFP-eIF2a substrate; read-out: Biochemical IC50
pIC50: −log10 of the molar value.
value.type: pIC50

Worked cases, pIC50 given:
Cc1cc(NC(=O)C(O)c2cccc3c2OCC3)ccc1-c1cnc(N)c(C(=O)NC(C)C)c1 (stereo not drawn) [Example 75] :: 6.60 to 7.00
CCc1cc(NC(=O)C(O)c2cc(F)cc(F)c2)ccc1-c1cnc(N)c(C(=O)NCC(F)(F)F)n1 (single isomer, unassigned) [Example 154] :: 7.60 to 9.00

Turning now to a further molecule:
Task item: Provide pIC50 value for the following molecule: CCNC(=O)c1cc(-c2ccc(NC(=O)C(O)c3cc(F)cc(F)c3)cc2Cl)cnc1N (stereo not drawn) [Example 82]
Reply: 7.60 to 9.00

* * *

Reported pIC50 by item:
Target: EIF2AK3 (PERK) catalytic domain (amino acids 536-1116) (Homo sapiens (Human), UniProt Q9NZJ5)
Test: PERK in vitro activity assay (isolated), TR-FRET kinase assay
Conditions: isolated PERK enzyme, 1.5 μM ATP, GFP-eIF2a substrate; read-out: Biochemical IC50
pIC50: −log10 of the molar value.

Cc1cc(NC(=O)C(O)c2cc(F)cc(F)c2)ccc1-c1cnc(N)c(C(=O)O)c1 (centres unmarked) :: 6.60 to 7.00
Cc1cc(NC(=O)C(O)c2cc(F)cc(F)c2)c(F)cc1-c1cnc(N)c(C(=O)NC(C)C)c1 (centres unmarked) [Example 125] :: 6.60 to 7.00
COC(C(=O)Nc1ccc(-c2cnc(N)c(C(=O)NC(C)C)c2)c(C)c1)c1ccccc1 (centres unmarked) :: 5.70 to 6.00

Task item: Assign pIC50 to the following record: Cc1cc(NC(=O)CC2CC2)ccc1-c1cnc(N)c(C(=O)NC(C)C)c1
Reply: 5.70 to 6.00

* * *

Molecular target: PERK (Homo sapiens (Human))
Experiment: PERK cellular assay (TR-FRET, HEK293-EGFP-eIF2α cells, tunicamycin-induced ER stress)
Type: cell-based
Settings: tunicamycin 2 hours, read-out: Cellular IC50 (μM) (EIF2a)
Reported IC50 values follow for various compounds

CC(C)NC(=O)c1cc(-c2ccc(NC(=O)C(O)c3cc(F)cc(F)c3)c(F)c2Cl)cnc1N (stereo not drawn) [Example 124] :: 0.051 to 0.1 µM

Task item: Provide IC50, tested on PERK (Homo sapiens (Human)), for CC(C)NC(=O)c1cc(-c2ccc(NC(=O)C(O)c3cc(F)cc(F)c3)cc2C(F)(F)F)cnc1N (stereo not drawn) [Example 37] .
Reply: 0.251 to 0.5 µM

Task item: Give PERK (Homo sapiens (Human)) IC50 for the following compound: COCCNC(=O)c1nc(-c2ccc(NC(=O)C(O)c3cc(F)cc(F)c3)cc2C)cnc1N (single isomer, unassigned) [Example 148]
Reply: 0.501 to 1 µM

* * *

Each entry below carries its reported IC50.
Biological target: EIF2AK3 (PERK) catalytic domain (amino acids 536-1116) (Homo sapiens (Human))
Test: PERK in vitro activity assay (isolated), TR-FRET kinase assay
Conditions: isolated PERK enzyme, 1.5 μM ATP, GFP-eIF2a substrate; read-out: Biochemical IC50

Cc1cc(NC(=O)C(=O)c2cc(F)cc(F)c2)ccc1-c1cnc(N)c(C(=O)NC(C)C)c1 [Example 184] :: 251 to 500 nM
Cc1cc(NC(=O)Cc2cccc(Cl)c2)ccc1-c1cnc(N)c(C(=O)NC(C)C)c1 [Example 199] :: 26 to 50 nM
Cc1cc(N(O)C(=O)C(O)c2cc(F)cc(F)c2)ccc1-c1cnc(N)c(C(=O)NC(C)C)c1 (stereo not drawn) [Example 182] :: 251 to 500 nM
CCc1cc(NC(=O)C(O)c2cccc(C(F)(F)F)c2)ccc1-c1cnc(N)c(C(=O)NC(C)C)c1 (stereo not drawn) [Example 110] :: 1 to 25 nM
Cc1cc(NC(=O)C(O)c2cc(F)cc(F)c2)ccc1-c1cnc(N)c(C(=O)NC(C)C)n1 (stereo not drawn) [Example 134] :: 1 to 25 nM
Nc1ncc(-c2ccc(NC(=O)C(O)c3cc(F)cc(F)c3)cc2Cl)nc1C(=O)NC1COC1 (stereo not drawn) [Example 169] :: 1 to 25 nM

Task item: Provide IC50, tested on EIF2AK3 (PERK) catalytic domain (amino acids 536-1116) (Homo sapiens (Human)), for CCNC(=O)c1cc(-c2ccc(NC(=O)C(O)c3cc(F)cc(F)c3)c(F)c2C)cnc1N (stereo not drawn) [Example 117] .
Reply: 1 to 25 nM

Task item: Please look at Cc1cc(NC(=O)Cc2ccccc2C(F)(F)F)ccc1-c1cnc(N)c(C(=O)NC(C)C)c1 [Example 201] and tell me its recorded IC50 on EIF2AK3 (PERK) catalytic domain (amino acids 536-1116) (Homo sapiens (Human)).
Reply: 51 to 100 nM

* * *

Molecular target: EIF2AK3 (PERK) catalytic domain (amino acids 536-1116) (Homo sapiens (Human))
Experiment: PERK in vitro activity assay (isolated), TR-FRET kinase assay
Conditions: isolated PERK enzyme, 1.5 μM ATP, GFP-eIF2a substrate; read-out: Biochemical IC50
Recorded IC50 values for a group of compounds are listed next.

Consider the reported IC50 for these compounds:
CC(=O)N1CC(NC(=O)c2cc(-c3ccc(NC(=O)C(O)c4cc(F)cc(F)c4)cc3C)cnc2N)C1 (stereo not shown) [Example 30] :: 1 to 25 nM
CCc1cccc(C(O)C(=O)Nc2ccc(-c3cnc(N)c(C(=O)NC(C)C)c3)c(CC)c2)c1 (stereo not shown) [Example 106] :: 1 to 25 nM

// switching to the query compound
Task item: Determine from records and report IC50 for Cc1cc(NC(=O)C(O)c2cccc3c2OCC3)ccc1-c1cnc(N)c(C(=O)NC(C)C)c1 (stereo not shown) [Example 74]
Reply: 251 to 500 nM

* * *

Biological target: PERK (Homo sapiens (Human))
Experiment: PERK cellular assay (TR-FRET, HEK293-EGFP-eIF2α cells, tunicamycin-induced ER stress)
Format: cell-based
Conditions: tunicamycin 2 hours, read-out: Cellular IC50 (μM) (EIF2a)
Description: Stable cell lines were created in HEK293 cells using lentiviral particles harboring an expression vector for GFP-eIF2α. Cells were selected using puromycin and enriched using fluorescence activated cell sorting against GFP. […] Cells were lysed and TR-FRET was measured in an EnVision plate reader (PerkinElmer). […] IC50 values were calculated using 4-parameter logistical fitting in XLFit.
value.type: IC50

Cc1cc(NC(=O)C(O)c2cc(F)cc(F)c2)c(F)cc1-c1cnc(N)c(C(=O)NC(C)C)c1 (stereo not shown) [Example 125] :: 0.501 to 1 µM

Task item: Give the reported IC50 for this compound. Cc1cc(NC(=O)C(F)(F)c2ccccc2)ccc1-c1cnc(N)c(C(=O)NC(C)C)c1 [Example 183]
Reply: 2 to 3 µM

Task item: Input Cc1cc(NC(=O)CC2CCCCC2)ccc1-c1cnc(N)c(C(=O)NC(C)C)c1 [Example 216] , output reported IC50.
Reply: > 5 µM

* * *

The molecules listed here are annotated with their IC50.
Molecular target: PERK (Homo sapiens (Human), UniProt Q9NZJ5)
Sequence (Q9NZJ5 30-1116): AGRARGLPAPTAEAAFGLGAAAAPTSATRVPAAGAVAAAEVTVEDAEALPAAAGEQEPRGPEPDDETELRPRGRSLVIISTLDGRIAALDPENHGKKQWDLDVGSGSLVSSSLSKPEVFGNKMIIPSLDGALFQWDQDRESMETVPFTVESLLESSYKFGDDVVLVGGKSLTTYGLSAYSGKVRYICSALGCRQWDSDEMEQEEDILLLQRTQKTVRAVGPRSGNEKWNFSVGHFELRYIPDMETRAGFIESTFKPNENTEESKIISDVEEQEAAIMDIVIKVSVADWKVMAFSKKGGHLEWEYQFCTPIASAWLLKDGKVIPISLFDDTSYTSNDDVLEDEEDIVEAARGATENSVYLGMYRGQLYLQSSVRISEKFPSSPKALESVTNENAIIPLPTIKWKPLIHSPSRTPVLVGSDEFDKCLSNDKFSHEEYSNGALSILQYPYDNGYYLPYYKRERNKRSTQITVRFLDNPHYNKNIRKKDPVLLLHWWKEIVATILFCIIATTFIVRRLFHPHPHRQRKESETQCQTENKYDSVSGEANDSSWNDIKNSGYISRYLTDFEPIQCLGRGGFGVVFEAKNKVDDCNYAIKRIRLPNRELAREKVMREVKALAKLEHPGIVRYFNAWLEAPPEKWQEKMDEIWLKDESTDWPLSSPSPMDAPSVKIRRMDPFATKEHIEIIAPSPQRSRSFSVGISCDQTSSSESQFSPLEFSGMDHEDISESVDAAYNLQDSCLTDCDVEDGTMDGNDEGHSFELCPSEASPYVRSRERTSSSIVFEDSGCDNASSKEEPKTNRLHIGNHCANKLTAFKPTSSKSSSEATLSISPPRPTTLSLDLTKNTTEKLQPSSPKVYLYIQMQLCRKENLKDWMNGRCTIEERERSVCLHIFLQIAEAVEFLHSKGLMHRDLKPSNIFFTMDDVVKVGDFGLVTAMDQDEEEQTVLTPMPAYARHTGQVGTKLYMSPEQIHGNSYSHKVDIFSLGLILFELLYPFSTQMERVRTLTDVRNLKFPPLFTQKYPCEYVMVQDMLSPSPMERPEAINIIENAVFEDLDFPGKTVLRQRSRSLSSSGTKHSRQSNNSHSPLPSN
Test: PERK cellular assay (TR-FRET, HEK293-EGFP-eIF2α cells, tunicamycin-induced ER stress)
Assay type: cell-based
Conditions: tunicamycin 2 hours, read-out: Cellular IC50 (μM) (EIF2a)

Task item: Entry CC(C)NC(=O)c1cc(-c2ccc(NC(=O)C(O)c3cc(F)cc(F)c3)cc2)cnc1N (stereo not drawn) [Example 81] needs its IC50 filled in; supply it.
Reply: 4 to 5 µM

Task item: Please give the documented IC50 of Cc1c(-c2cnc(N)c(C(=O)NC3COC3)c2)ccc(NC(=O)C(O)c2cc(F)cc(F)c2)c1F (stereo not drawn) [Example 122]
Reply: 0.501 to 1 µM

Task item: Dear colleague, please send me the reported IC50 for CCc1cc(NC(=O)C(O)c2ccccc2C)ccc1-c1cnc(N)c(C(=O)NC(C)C)c1 (single isomer, unassigned) [Example 104] when you can.
Reply: 0.051 to 0.1 µM

Task item: Give IC50 for the following molecule: Cc1cc(NC(=O)C(N)c2ccccc2)ccc1-c1cnc(N)c(C(=O)NC(C)C)c1 (stereo not drawn) [Example 6]
Reply: 3 to 4 µM

Task item: Supply IC50 value. Item: CCc1cc(NC(=O)C(O)c2cc(F)cc(F)c2)ccc1-c1cnc(N)c(C(=O)NC(C)C)c1 (single isomer, unassigned) [Example 38]
Reply: 0.001 to 0.025 µM

Task item: Identify measured IC50 corresponding to Cc1cc(NC(=O)C(C)(O)c2ccccc2)ccc1-c1cnc(N)c(C(=O)NC(C)C)c1 (stereo not drawn) [Example 4]
Reply: 3 to 4 µM

Task item: Please report IC50 for the following molecule: Cc1cc(NC(=O)C(O)c2cccc(C(F)(F)F)c2)ccc1-c1cnc(N)c(C(=O)NC(C)C)c1 (stereo not drawn) [Example 70]
Reply: 0.001 to 0.025 µM

Task item: Supply recorded IC50 for Cc1cc(NC(=O)C(O)c2cc(F)cc(F)c2)ccc1-c1cnc(N)c(C(=O)NC2CCOCC2)n1 (single isomer, unassigned) [Example 144] here.
Reply: 0.501 to 1 µM

Task item: Please give measured IC50 of the following entry: Cc1cc(NC(=O)C(O)c2cc(F)cc(F)c2)ccc1-c1cnc(N)c(C(=O)NC2CC(O)C2)c1 (stereo not drawn) [Example 27]
Reply: 1 to 2 µM
